- protocol: MTT cell viability assay, HaCaT
- Type: cell-based, human
- experimental-context: human, HaCaT cells, 100 μΜ, 24 h
quantity: viability at 24 h, 100 μM

CC(=O)Oc1ccc(-c2c(C)c3ccccc3oc2=O)cc1OC(C)=O; 100%
CC(=O)Oc1cccc2oc(=O)c(-c3ccc(F)cc3)c(C)c12; 100%
Cc1c(-c2ccccc2Cl)c(=O)oc2cccc(O)c12; 100%
Cc1c(-c2cccc(F)c2)c(=O)oc2cccc(O)c12; 92.4%
CC(=O)Oc1ccc(-c2c(C)c3cc(Br)cc(Br)c3oc2=O)cc1; 100%
Cc1c(-c2ccccc2F)c(=O)oc2cccc(O)c12; 100%
CC(=O)Oc1ccc(-c2c(C)c3cc(Cl)ccc3oc2=O)cc1OC(C)=O; 100%
CC(=O)Oc1ccc(-c2c(C)c3cc(Br)ccc3oc2=O)cc1; 100%
CC(=O)Oc1ccc(-c2c(C)c3cc(Cl)ccc3oc2=O)cc1; 90.5%

---

- experimental-system: human serum albumin (HSA) (Homo sapiens, UniProt P02768)
- Construct: purchased CHIRAL PAK
- Sequence (P02768 25-609): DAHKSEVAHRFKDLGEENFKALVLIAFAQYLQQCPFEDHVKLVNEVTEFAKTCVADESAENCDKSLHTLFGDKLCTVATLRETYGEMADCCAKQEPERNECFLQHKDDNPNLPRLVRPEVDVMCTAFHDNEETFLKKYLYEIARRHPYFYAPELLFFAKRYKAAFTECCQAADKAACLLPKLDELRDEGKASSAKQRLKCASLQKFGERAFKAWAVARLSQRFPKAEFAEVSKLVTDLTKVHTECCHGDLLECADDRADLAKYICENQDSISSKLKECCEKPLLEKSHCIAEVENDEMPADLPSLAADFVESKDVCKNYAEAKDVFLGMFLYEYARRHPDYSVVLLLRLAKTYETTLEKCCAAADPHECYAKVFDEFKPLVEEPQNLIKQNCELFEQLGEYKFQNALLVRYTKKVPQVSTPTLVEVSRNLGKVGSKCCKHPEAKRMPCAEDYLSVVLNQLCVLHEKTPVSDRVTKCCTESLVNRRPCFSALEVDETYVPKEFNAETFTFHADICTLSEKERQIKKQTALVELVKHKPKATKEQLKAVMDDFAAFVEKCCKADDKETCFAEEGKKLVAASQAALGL
- protocol: HSA chromatography and estimated plasma protein binding
- Format: in vitro ADME
- experimental-context: human, immobilized human serum albumin (HSA) column; Equation (2) from logk10, pH 7.00; read-out: %PPB estimated plasma protein binding (converted)
Labels assigned by fraction unbound range: low band (below 0.09), middle band (0.09 to below 0.2), high band (0.2 or more)

Cc1c(-c2cccc(F)c2)c(=O)oc2cccc(O)c12; low band
CC(=O)Oc1ccc(-c2c(C)c3cc(Br)cc(Br)c3oc2=O)cc1; low band
CC(=O)Oc1cccc2oc(=O)c(-c3ccccc3F)c(C)c12; middle band
CC(=O)Oc1ccc(-c2c(C)c3ccccc3oc2=O)cc1; middle band
CC(=O)Oc1ccc(-c2c(C)c3ccccc3oc2=O)cc1OC(C)=O; high band

---

- experimental-system: human serum albumin (HSA) (Homo sapiens, UniProt P02768)
- Construct: purchased CHIRAL PAK
- protocol: HSA chromatography and estimated plasma protein binding
- Assay type: in vitro ADME
- experimental-context: human, immobilized human serum albumin (HSA) column; Equation (2) from logk10, pH 7.00; read-out: %PPB estimated plasma protein binding (converted)
- Description: The novel coumarin derivatives were also studied using the immobilized protein column HSA. […] Retention factors on the HSA stationary phase were measured using as eluent PBS at pH = 7.00 and a flow rate of 1 mL/min in the presence of 10% acetonitrile. […] The training set consisted of 25 neutral and slightly acidic compounds. Their IAM retention factors were measured at pH 7.40 on a IAM.PC.DD.2 column. […] Their HSA retention factors were measured at pH 7.00 on HSA column. […]
Catalogue of fraction unbound readings, one per entry.
quantity: fraction unbound

CC(=O)Oc1cccc2oc(=O)c(-c3ccc(F)cc3)c(C)c12; 0.206
CC(=O)Oc1ccc(-c2c(C)c3cc(Cl)ccc3oc2=O)cc1OC(C)=O; 0.145
CC(=O)Oc1cccc2oc(=O)c(-c3cccc(F)c3)c(C)c12; 0.149
CC(=O)Oc1cccc2oc(=O)c(-c3cccc(Br)c3)c(C)c12; 0.12
Cc1c(-c2ccc(Cl)cc2)c(=O)oc2cccc(O)c12; 0.152
Cc1c(-c2ccccc2F)c(=O)oc2cccc(O)c12; 0.152

FYI, the data here is from paper PMC8512853.
